# TEST TARGET: T1, extracellular portion of human CD137 fused to a histidine-containing peptide (human, UniProt Q07011 24-186)
# T1 construct: extracellular domain; also called huCD137; His-tagged soluble human CD137
# ASSAY COMMENT: SPR (BIACORE); antibody captured on anti-human Fc; huCD137 25 and 100 nM; 1:1 Langmuir
EXPERIMENTAL ENDPOINT: kon

query: Any idea what its kon is? The binder is hCD137 MAB-4 (1.1) (antibody, V domains shown, also called chCD137 MAB-4 (1.1)) VH: QVQLVQSGAEVKKPGASVKVSCKASGYTFTSYWINWVRQAPGQGLEWMGNIYPSDSYTNYDQKFKDRVTMTRDTSTSTVYMELSSLRSEDTAVYYCTKSGEYGKIGYYAMDYWGQGTTVTVSS VL: DIQMTQSPSSLSASVGDRVTITCRASQDISNYLNWYQQKPDKTVKLLIYYTSRLHSGVPSRFSGSGSGTDYTLTISSLQPEDIATYFCQQGNTLPYTFGQGTKLEIK
result: 130000 M⁻¹ s⁻¹

query: Any idea what its kon is? The binder is hCD137 MAB-3 (1.3) (antibody, V domains shown, also called chCD137 MAB-3 (1.3)) VH: QVQLVQSGAEVKKPGASVKVSCKASGYTFTSYWINWVKQAPGQGLEWIGNIYPSDSYTNYNQKFKDKATITADKSTSTAYMELSSLRSEDTAVYYCTRDYGSSYSFDYWGQGTTVTVSS VL: DIQMTQSPSSLSASVGDRVTITCRPSQDISNYLNWYQQKPDKTVKLLIYYTSRLRSGVPSRFSGSGSGTDFTFTISSLQPEDIATYFCQQGDTLPYTFGQGTKLEIK
result: 660000 M⁻¹ s⁻¹

query: Any idea what its kon is? The binder is hCD137 MAB-3 (1.2) (antibody, V domains shown, also called chCD137 MAB-3 (1.2)) VH: QVQLVQSGAEVKKPGASVKVSCKASGYTFTSYWINWVKQAPGQGLEWIGNIYPSDSYTNYNQKFKDKATITADKSTSTAYMELSSLRSEDTAVYYCTRDYGSSYSFDYWGQGTTVTVSS VL: DIQMTQSPSSLSASVGDRVTITCRPSQDISNYLNWYQQKPGGTVKLLIYYTSRLRSGVPSRFSGSGSGTDFTFTISSLQPEDIATYFCQQGDTLPYTFGQGTKLEIK
result: 610000 M⁻¹ s⁻¹

query: Any idea what its kon is? The binder is chCD137 MAB-4 (antibody, V domains shown) VH: QVQLQQPGAELVRPGASVKLSCKASGYTFTSYWINWVKQRPGQGLEWIGNIYPSDSYTNYDQKFKDKATLTVDKSSSTAYMQLSSPTSEDSAVYYCTKSGEYGKIGYYAMDYWGQGTSVTVSS VL: DIQMTQTTSSLSASLGDRVTISCRASQDISNYLNWYQQKPDGTVKLLIYYTSRLHSGVPSRFSGSGSGTDYSLTISNLEQEDIATYFCQQGNTLPYTFGGGTKLEIK
result: 150000 M⁻¹ s⁻¹
